test: Plasma Protein Binding, dog; assay type: in vitro ADME; settings: read-out: Plasma Protein Binding PPB (d) % (converted)
Reported fraction unbound at 5.5 h, 1 μM is given for each of the following compounds.
Response field accepts a number only; no unit should be typed.

Kindly note the recorded fraction unbound at 5.5 h, 1 μM for CC(C)(O)Cn1cnc2c(-c3cccnc3)nc(-c3ccc(C(F)(F)F)nc3)cc2c1=O [Compound 9] , which is 0.124

# input for lookup
Notebook: C[C@@H](CO)n1cnc2c(-c3cccnc3)nc(-c3ccc(C(F)(F)F)cn3)cc2c1=O [Compound 46] , fraction unbound at 5.5 h, 1 μM read as 0.11

====

test: In vivo PK study in male Sprague Dawley rats; conditions: male, Sprague Dawley, plasma, intravenous, 1 mg/kg; in vivo DMPK profile, rat; read-out: Rat Vss
reported.property: Vd (L/kg)
Unit L/kg implied. Number only.

The recorded Vd for entry C[C@@H](CO)n1cnc2c(-c3cccnc3)nc(-c3ccc(C(F)(F)F)cn3)cc2c1=O [Compound 46] equals 3.1

Further cases:
response.value for CC(C)(O)Cn1cnc2c(-c3cccnc3)nc(-c3ccc(C(F)(F)F)nc3)cc2c1=O [Compound 9] (field: Vd) = 1.75

====

experiment: In vivo PK study in male Sprague Dawley rats; conditions: male, Sprague Dawley, rat, plasma; rats, PO, dosage of 3 mg/kg
Rule: Cmax under 200 ng/mL gives 0.0, otherwise 1.0.

Study these solved cases before continuing.
Input line: Item Cn1cc(-c2nc(-c3ccc(C(F)(F)F)cn3)cc3c(=O)n(CC(C)(C)O)cnc23)cn1 [Compound 103] with Cmax of 200 ng/mL or above?
Output line: 0.0

Input line: Textbook exercise: given the entry C[C@@H](CO)n1cnc2c(-c3cccnc3)nc(-c3ccc(C(F)(F)F)cn3)cc2c1=O [Compound 46] , state whether its Cmax is greater than or equal to 200 ng/mL.
Output line: 1.0

Input line: Is reported Cmax greater than or equal to 200 ng/mL here: O=c1c2cc(-c3ccc(C(F)(F)F)nc3)nc(-c3cccnc3)c2ncn1[C@@H]1COC[C@H]1O [Compound 79]
Output line: 1.0

Input line: Decide: is the reported value of Cmax for CC(C)(O)Cn1cnc2c(-c3cccnc3)nc(-c3ccc(C(F)(F)F)cn3)cc2c1=O [Compound 105] equal to or greater than 200 ng/mL?
Output line: 1.0

Input line: Evaluate Cn1cc(-c2nc(-c3ccc(C(F)(F)F)nc3)cc3c(=O)n(CC(C)(C)O)cnc23)cn1 [Compound 60] : Cmax at minimum 200 ng/mL?
Output line: 0.0

Input line: Answer whether Cmax of C[C@H](n1cnc2c(-c3cnn(C)c3)nc(-c3ccc(Cl)cc3)cc2c1=O)C(C)(C)O [Compound 30] is greater than or equal to 200 ng/mL.
Output line: 1.0

Kindly consider the entry below.
Input line: Would you say C[C@@H](CO)n1cnc2c(-c3cccc(F)c3)nc(-c3ccc(Cl)cc3)cc2c1=O [Compound 7] shows Cmax at minimum 200 ng/mL?
Output line: 1.0

====

experiment: Caco-2 Permeability Assay; type: in vitro ADME; details: human, Caco-2, pH 7.4, apical to basolateral; read-out: Caco2 Papp (AB)
reported.property: Papp A→B at 2 h, 1 μM

Sure, the documented Papp A→B at 2 h, 1 μM for CC(C)(O)Cn1cnc2c(-c3cccnc3)nc(-c3ccc(Cl)cc3)cc2c1=O is 2 to 10 ×10⁻⁶ cm/s

What the record says about Cn1cc(-c2nc(-c3ccc(C(F)(F)F)nc3)cc3c(=O)n(CC(C)(C)O)cnc23)cn1 : Papp A→B at 2 h, 1 μM is > 10 ×10⁻⁶ cm/s

Papp A→B at 2 h, 1 μM reading for C[C@H](n1cnc2c(-c3cccnc3)nc(-c3cccnc3)cc2c1=O)C(C)(C)O : 2 to 10 ×10⁻⁶ cm/s
